Source: patent US20220098305A1

Below, each of the binders is paired with its reported EC50 (read off the curve) value.
Molecular target: T1, human ICOS (human, UniProt Q9Y6W8 21-199)
T1 construct: The cell that carries it is named under assay; also called huICOS; CD278
T1 sequence: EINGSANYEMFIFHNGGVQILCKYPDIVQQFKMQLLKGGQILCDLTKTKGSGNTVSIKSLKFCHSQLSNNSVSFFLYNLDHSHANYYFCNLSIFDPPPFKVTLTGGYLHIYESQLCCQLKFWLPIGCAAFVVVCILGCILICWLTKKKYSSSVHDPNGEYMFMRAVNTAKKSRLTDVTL
Experiment: flow cytometry on CHO cells expressing human ICOS, PE-labelled secondary antibody; y axis printed LOG10(MFI PE)
REPORTED_ENDPOINT: EC50 (read off the curve)

| BINDER | MEASURED_RESULT |
| --- | --- |
| Molecule 35 (ICOS H1138_3) (antibody, human IgG1, kappa, L234A L235A, V domains shown, Human IgG format) VH: EVQLLESGGGLVQPGGSLRLSCAASGFDLSSYYYMSWVRQAPGKGLEWVSSIYADIYGGTTHYASWAKGRFTISKTSSTTLYLQMNSLRAEDTAVYFCAREDGSRYGGSGYYNLWGQGTLVTVSS VL: AIQMTQSPSSLSASVGDRVTITCRASQNIYSNLAWYQQKPGKPPKLLIYAASYLTSGVSSRFSGSGSGTDFTLTISSLQPEDFATYYCQQGHTTDNIDNAFGGGTKVEIKR | ~3 nM |
| Molecule 32 (ICOS 1138) (antibody, human IgG1, kappa, L234A L235A, V domains shown, Human IgG format; also called parental antibody of Molecules 33-35) VH: QSLEESGGDLVKPGASLTLTCTASGFDLSSYYYMSWVRQAPGKGLEWIASIYADIYGGTTHYASWAKGRFTISKTSSTTVTLQMTSLTAADTATYFCAREDGSRYGGSGYYNLWGPGTLVTVSS VL: ALVMTQTPSSVSAAVGGTVTINCQASQNIYSNLAWYQQKPGQPPKLLIYAASYLTSGVSSRFKGSGAGTQFTLTISGVESADAATYYCQQGHTTDNIDNAFGGGTEVVVKR | ~2 nM |
| Molecule 34 (ICOS H1138_2) (antibody, human IgG1, kappa, L234A L235A, V domains shown, Human IgG format) VH: EVQLLESGGGLVQPGGSLRLSCAASGFDLSSYYYMSWVRQAPGKGLEWVSSIYADIYGGTTHYASWAKGRFTISRDNSKNTLYLQMNSLRAEDTAVYFCAREDGSRYGGSGYYNLWGQGTLVTVSS VL: AIQMTQSPSSLSASVGDRVTITCRASQNIYSNLAWYQQKPGKPPKLLIYAASYLTSGVSSRFSGSGSGTDFTLTISSLQPEDFATYYCQQGHTTDNIDNAFGGGTKVEIKR | ~10 nM |
| Molecule 33 (ICOS H1138_1) (antibody, human IgG1, kappa, L234A L235A, V domains shown, Human IgG format) VH: EVQLLESGGGLVQPGGSLRLSCAASGFDLSSYYYMSWVRQAPGKGLEWVSSIYADIYGGTTHYASWAKGRFTISKTSSKTTLYLQMNSLRAEDTAVYFCAREDGSRYGGSGYYNLWGQGTLVTVSS VL: DIQMTQSPSSLSASVGDRVTITCRASQNIYSNLAWYQQKPGQPPKLLIYAASYLTSGVPSRFSGSGSGTDFTLTISSLQPEDFATYYCQQGHTTDNIDNAFGGGTKVEIKR | ~8 nM |
